Cited source for all entries: paper PMC8398059

List of Percentage lysis of human erythrocytes values.
System: human erythrocytes
assay-protocol: Haemolytic assay
Assay type: cell-based
condition-info: peptoid 100 µM, 37 °C, 1 h, absorbance 450 nm; positive control 1% Triton x-100; n = 3 independent experiments, 3 replicates each
Protocol: The haemolytic assay was employed to determine the potential cytotoxicity of the peptoids against human red blood cells. Blood samples were collected with ethical approval and informed consent in vacutainer containers with dipotassium ethylene- diaminetetraacetic acid (K2-EDTA). […] Peptoids 1, 2, 3, 4, 5, 6, 7, 8 and 9 were diluted in PBS to 200 µM. […] The absorbance was read at 450 nm using a Tecan Genios (Männedorf, Switzerland) plate reader, and the percentage of red blood cells lysed was calculated.
Non-standard residues stand in square brackets, D forms with d. Residues, ends and D or L forms follow the SMILES beside them. Gly(N-2-aminoethyl) = NCCNCC(=O)O; Nspe = C[C@H](NCC(=O)O)c1ccccc1; Nlys = NCCCCNCC(=O)O

• C[C@@H](c1ccccc1)N(CC(N)=O)C(=O)CN(C(=O)CN(CCCCN)C(=O)CN(C(=O)CN(C(=O)CN(CCCCN)C(=O)CN(C(=O)CN(C(=O)CNCCCCN)[C@@H](C)c1ccccc1)[C@@H](C)c1ccccc1)[C@@H](C)c1ccccc1)[C@@H](C)c1ccccc1)[C@@H](C)c1ccccc1 [Peptoid 3] (H-[Nlys][Nspe][Nspe][Nlys][Nspe][Nspe][Nlys][Nspe][Nspe]-NH2; N-terminus assumed) = ≥ 10%

Qu. Indicate the recorded Percentage lysis of human erythrocytes value for this compound: C[C@@H](c1ccccc1)N(CC(N)=O)C(=O)CN(C(=O)CN(CCN)C(=O)CN(C(=O)CN(C(=O)CN(CCN)C(=O)CN(C(=O)CN(C(=O)CNCCN)[C@@H](C)c1ccccc1)[C@@H](C)c1ccccc1)[C@@H](C)c1ccccc1)[C@@H](C)c1ccccc1)[C@@H](C)c1ccccc1 [Peptoid 5] (H-[Gly(N-2-aminoethyl)][Nspe][Nspe][Gly(N-2-aminoethyl)][Nspe][Nspe][Gly(N-2-aminoethyl)][Nspe][Nspe]-NH2; N-terminus assumed)
Ans. ≥ 10%
